# subject_of_test: T1, human plasma kallikrein (human, UniProt P03952 20-390; P03952 391-638)
# T1 construct: also called pKal; Human pKal
# assay_method_text: ELISA, biotinylated pKal signal over streptavidin background
ELISA (T/B) under 30 T/B gets Met, anything at or over 30 T/B gets Not met.

M29-D09 (Fab, V domains shown, HC as printed runs into CH1; also called 559A-M0029-D09) VH: EVQLLESGGGLVQPGGSLRLSCAASGFTFSWYTMVWVRQAPGKGLEWVSYIYPSGGATFYADSVKGRFTISRDNSKNTLYLQMNSLRAEDTAVYYCAMGSYDYIWGFYSDHWGQGTLVTVSS VL: QSALTQPPTVSVSPGQTARITCSGNKLGDKYVAWYQQKPGQSPMLVIYQDTKRPSRVSERFSGSNSANTATLSISGTQALDEADYYCQAWDSSIVIFGGGTRLTVL	Not met

Request: Hello, I'm reviewing records and need to know if ELISA (T/B) of M12-A08 (Fab, V domains shown, HC as printed runs into CH1) VH: EVQLLESGGGLVQPGGSLRLSCAASGFTFSWYYMGWVRQAPGKGLEWVSWIVSSGGLTLYADSVKGRFTISRDNSKNTLYLQMNSLRAEDTAMYYCARTTVTTGDAFDIWGQGTMVTVSS VL: DIQMTQSPSSLSASVGDRVTITCRASQSISRYLNWYQQKPGKAPKLLIYAASTLETGVPSRFSGSGSGTDFTLTITTLQPEDFVIYYCQQSYSTPYTFGQGTKLEIK is below 30 T/B. Could you check?
Result: Not met

Request: Hello, I'm reviewing records and need to know if ELISA (T/B) of M11-E04 (Fab, V domains shown, HC as printed runs into CH1) VH: EVQLLESGGGLVQPGGSLRLSCAASGFTFSMYHMNWVRQAPGKGLEWVSGIVSSGGVTFYADSVKGRFTISRDNSKNTLYLQMNSLRAEDTAVYYCARITTVTTGGAFDIWGQGTMVTVSS VL: DIQMTQSPSSLSASVGDRVTITCRASQSISIYLTWYQHRPGKAPNLLIYGAATLQTGVPSRFSGSGSGTDFTLTIRGLQPEDFATYYCQQTFSLPRTFGQGTKLEIK is below 30 T/B. Could you check?
Result: Not met

Request: Hello, I'm reviewing records and need to know if ELISA (T/B) of M6-A08 (Fab, V domains shown, HC as printed runs into CH1) VH: EVQLLESGGGLVQPGGSLRLSCAASGFTFSPYPMQWVRQAPGKGLEWVSSISSSGGMTEYADSVKGRFTISRDNSKNTLYLQMNSLRAEDTAVYYCARDDYGGKGGAFDIWGQGTMVTVSS VL: DIQMTQSPSSLSASVGDRVTITCRASQRISFYLNWFQQKPGKAPNLLIYGASSLQSGVPSRFSGSGSGTDFTLTISSLQPKDFGTYYCQQTFSTPNTFGQGTKLEIK is below 30 T/B. Could you check?
Result: Met

Request: Hello, I'm reviewing records and need to know if ELISA (T/B) of M11-A10 (Fab, V domains shown, HC as printed runs into CH1; also called Ml1-A10) VH: EVQLLESGGGLVQPGGSLRLSCAASGFTFSNYWMMWVRQAPGKGLEWVSGIGSSGGFTSYADSVKGRFTISRDNSKNTLYLQMNSLRAEDTAVYYCAKGSYSDYGVFESWGQGTLVTVSS VL: DIQMTQSPSSLSASVGDRVAITCRASQSIDTYLNWYQQKPGKAPKLLIYDASNLEIGVPSRFSGSGSGTDFTFIINSLQPEDVATYYCQHYLYAPYSFGQGTKLEIK is below 30 T/B. Could you check?
Result: Met

Request: Hello, I'm reviewing records and need to know if ELISA (T/B) of M38-F02 (Fab, V domains shown, HC as printed runs into CH1) VH: EVQLLESGGGLVQPGGSLRLSCAASGFTFSYYMMVWVRQAPGKGLEWVSYIYSSGGHTVYADSVKGRFTISRDNSKNTLYLQMNSLRAEDTAVYYCARDLFLYDFWSKGAFDIWGQGTMVTVSS VL: QSVLTQPPSVSVSPGQTASITCSGEKLGDKYVSWYQQKPGQSPSLVICEDSRRPSGIPERFSGSNSGNTATLTISGAQPMDEADYYCQAWDSSTAIFGPGTKVTVL is below 30 T/B. Could you check?
Result: Not met
